# target.or.system: GII.17 VLP
# test.protocol: KD value by bio-layer interferometry (BLI, BLItz), peptide on SA chip, GII.17 VLP
# Assay type: binding, norovirus GII.17 Saitama strain
# setup.conditions: GII.17 VLP; dissociation in PBS 60 sec
Classify by measured kd: 1 (yes) if it is equal to or exceeds 0.05 s⁻¹, 0 (no) if it is smaller.

Field: example entries. Status: answers known.
- item.sequence: "ECMGRRWMSS [No. 154]"
  label.value: "0 (no)"
- item.sequence: "KYRATICHTV [No. 52]"
  label.value: "0 (no)"
- item.sequence: "ICSSWFPSVH [No. 48]"
  label.value: "1 (yes)"
- item.sequence: "YVIRNSDRHN [No. 43]"
  label.value: "1 (yes)"
- item.sequence: "SVMVTRSLFG [No. 163]"
  label.value: "0 (no)"

Determine whether this sequence has kd no lower than 0.05 s⁻¹: VVGFGRRSLF [No. 156]
1 (yes)

Ok, now VCVDNDISMS [No. 150]
1 (yes)
